Provenance of the data: patent US8013153B2

- Test system: HCT-116 colon carcinoma
- EXPERIMENT SUMMARY: Inhibition of in vitro cell proliferation (HCT116)
- Format: cell-based, human
- TEST PARAMETERS: Homo sapiens, HCT-116, 14C-thymidine incorporation
QUANTITY MEASURED: IC50
Please state the value followed by its unit.

Some compounds with known IC50 results, for comparison:
- SMILES: "CO/N=C/c1c(N)ncnc1Oc1ccc2[nH]c(C)cc2c1"
  SYSTEM NAME: "HCT-116 colon carcinoma"
  IC50: "0.386 µM"
- SMILES: "Cc1cc2c(F)c(Oc3ncnc(N)c3C=NOCC3CCCCC3)ccc2[nH]1"
  SYSTEM NAME: "HCT-116 colon carcinoma"
  IC50: "16.1 µM"
- SMILES: "CON=Cc1c(N)ncnc1Oc1ccc2c(ccn2C)c1"
  SYSTEM NAME: "HCT-116 colon carcinoma"
  IC50: "0.749 µM"

Moving on to the next compound.
Recorded result, CO/N=C/c1c(N)ncnc1Oc1ccc2[nH]ccc2c1 , IC50: 3.52 µM

---

- SYSTEM NAME: murine Aurora-A (Mus musculus, UniProt P97477)
- Construct: replaced with the full length protein encoding the murine Aurora-A; made in house; host or cells: sf9 insect cells
- Sequence (P97477 whole entry): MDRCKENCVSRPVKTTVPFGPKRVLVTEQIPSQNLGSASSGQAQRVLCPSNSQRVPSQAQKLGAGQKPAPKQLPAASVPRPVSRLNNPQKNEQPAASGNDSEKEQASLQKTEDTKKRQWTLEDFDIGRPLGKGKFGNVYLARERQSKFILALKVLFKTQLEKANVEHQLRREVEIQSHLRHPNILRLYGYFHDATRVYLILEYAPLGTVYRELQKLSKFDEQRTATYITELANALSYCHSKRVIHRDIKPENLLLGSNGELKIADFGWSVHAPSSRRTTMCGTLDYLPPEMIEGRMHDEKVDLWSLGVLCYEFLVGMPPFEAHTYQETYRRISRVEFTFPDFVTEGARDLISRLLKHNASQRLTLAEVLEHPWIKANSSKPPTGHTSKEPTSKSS
- EXPERIMENT SUMMARY: Aurora-A Screening Assay
- Assay type: biochemical
QUANTITY MEASURED: IC50

Some compounds with known IC50 results, for comparison:
- SMILES: "CON=Cc1c(N)ncnc1Oc1ccc2c(c1)cc(C)n2C(=O)NCc1ccccc1"
  READING: "> 100 µM"
- SMILES: "CCCNC(=O)n1c(C)cc2cc(Oc3ncnc(N)c3C=NOC)ccc21"
  READING: "> 100 µM"
- SMILES: "CNC(=O)Nc1ccc(Oc2ncnc(N)c2C=NOC)cc1F"
  READING: "> 100 µM"
- SMILES: "CON=Cc1c(N)ncnc1Oc1ccc(NC(=O)Nc2cccc(Cl)c2)c(Cl)c1"
  READING: "> 100 µM"
- SMILES: "CON=Cc1c(N)ncnc1Oc1ccc(NC(=O)Nc2ccccc2Cl)c(Cl)c1"
  READING: "> 10 µM"

Recorded result, CCNC(=O)Nc1ccc(Oc2ncnc(N)c2C=NOC)cc1C , IC50: > 100 µM

Recorded result, CON=Cc1c(N)ncnc1Oc1ccc2ncccc2c1 , IC50: > 10 µM

---

- SYSTEM NAME: rat VEGF-R2 kinase domain (Rattus norvegicus)
- Construct: amino acids 786-1343 of the rat VEGF-R2 kinase domain; polyhistidine (N)
- Sequence (O08775 786-1343): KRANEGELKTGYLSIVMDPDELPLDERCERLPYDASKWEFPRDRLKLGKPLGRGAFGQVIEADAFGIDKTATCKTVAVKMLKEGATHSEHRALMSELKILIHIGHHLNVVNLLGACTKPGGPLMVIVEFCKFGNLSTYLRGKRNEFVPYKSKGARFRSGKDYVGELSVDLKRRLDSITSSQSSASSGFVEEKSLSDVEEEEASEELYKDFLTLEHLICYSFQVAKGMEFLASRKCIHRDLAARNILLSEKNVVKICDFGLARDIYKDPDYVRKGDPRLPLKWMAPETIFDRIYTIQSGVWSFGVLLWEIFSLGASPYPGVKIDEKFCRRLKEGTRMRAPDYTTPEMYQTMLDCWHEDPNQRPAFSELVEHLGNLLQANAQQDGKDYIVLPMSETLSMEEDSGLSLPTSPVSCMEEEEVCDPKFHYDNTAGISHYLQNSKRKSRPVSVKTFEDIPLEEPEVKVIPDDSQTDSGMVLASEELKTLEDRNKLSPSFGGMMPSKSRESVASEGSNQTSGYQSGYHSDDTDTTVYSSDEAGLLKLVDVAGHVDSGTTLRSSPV
- EXPERIMENT SUMMARY: VEGF-R2 Screening Assay
- Type: biochemical
- TEST PARAMETERS: > means no observed 50% inhibition at the indicated test concentration; ~ means approximately 50% inhibition at that concentration; read-out: IC50 VEGF-R2
Below, each entry is listed with its recorded IC50.
Give just the numeric value; nM need not be written.

Some compounds with known IC50 results, for comparison:
- COMPOUND: "Cc1cc2c(F)c(Oc3ncnc(N)c3C=NOCCCN3CCCC3)ccc2[nH]1 [Cpd 18]"
  IC50 (nM): 65
- COMPOUND: "CON=Cc1c(N)ncnc1Oc1ccc(NC(=O)Nc2cccc(F)c2)c(Cl)c1 [Cpd 57]"
  IC50 (nM): 1.7
- COMPOUND: "Cc1cc2c(F)c(Oc3ncnc(N)c3C=NOCCCCN3CCOCC3)ccc2[nH]1 [Cpd 26]"
  IC50 (nM): 48

Moving on to the next compound.
Field IC50 (system: rat VEGF-R2 kinase domain (Rattus norvegicus)) for entry CON=Cc1c(N)ncnc1Oc1ccc2c(c1)cc(C)n2C(=O)NCCO [Cpd 39] = 108

---

- SYSTEM NAME: HER2 cytoplasmic domain (Homo sapiens)
QUANTITY MEASURED: IC50

- SMILES: "CON=Cc1c(N)ncnc1Oc1ccc(NC(=O)Nc2ccccc2Cl)c(Cl)c1"
  IC50: "1.82 µM"
- SMILES: "CCNC(=O)Nc1ccc(Oc2ncnc(N)c2/C=N/OC)cc1Cl"
  IC50: "> 100 µM"
- SMILES: "CCNC(=O)Oc1ccc(Oc2ncnc(N)c2C=NOC)cc1"
  IC50: "> 100 µM"

Field IC50 (system: HER2 cytoplasmic domain (Homo sapiens)) for entry CON=Cc1c(N)ncnc1Oc1ccc2[nH]ccc2c1F = 0.653 µM

---

Below, each entry is listed with its recorded IC50.
- Test system: HCT-116 colon carcinoma
- EXPERIMENT SUMMARY: Inhibition of in vitro cell proliferation (HCT116);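 note: cells exposed to compound for 24 h, then 14C-thymidine added for a further 24 h and its uptake into DNA counted by scintillation, DMSO-only wells as control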
- Assay type: cell-based, human
- TEST PARAMETERS: Homo sapiens, HCT-116, 14C-thymidine incorporation
Give just the numeric value; µM need not be written.

- SMILES: "Cc1cc2c(F)c(Oc3ncnc(N)c3C=NOCCCN3CCNCC3)ccc2[nH]1"
  IC50 (µM): 68.1
- SMILES: "CON=Cc1c(N)ncnc1Oc1ccc2cccnc2c1"
  IC50 (µM): 2.62
- SMILES: "CON=Cc1c(N)ncnc1Oc1ccc2ncccc2c1"
  IC50 (µM): 2.87

Field IC50 (system: HCT-116 colon carcinoma) for entry CON=Cc1c(N)ncnc1Oc1ccc(NC(=O)Nc2ccccc2OC)c(Cl)c1 = 8.19

Field IC50 (system: HCT-116 colon carcinoma) for entry CON=Cc1c(NOC)ncnc1Oc1ccc2[nH]ccc2c1 = 38.3

Field IC50 (system: HCT-116 colon carcinoma) for entry CON=Cc1c(N)ncnc1Oc1ccc(NC(=O)NCCCO)c(Cl)c1 = 3.78

Field IC50 (system: HCT-116 colon carcinoma) for entry Cc1cc2c(F)c(Oc3ncnc(N)c3C=NOCc3ccccc3)ccc2[nH]1 = 0.311

Field IC50 (system: HCT-116 colon carcinoma) for entry Cc1cc2c(F)c(Oc3ncnc(N)c3C=NOCCCN3CCCCC3)ccc2[nH]1 = 2.78

Field IC50 (system: HCT-116 colon carcinoma) for entry CNC(=O)Nc1ccc(Oc2ncnc(N)c2C=NOC)c(Cl)c1 = 4.86

Field IC50 (system: HCT-116 colon carcinoma) for entry CON=Cc1c(N)ncnc1Oc1ccc(NC(C)=O)c(Cl)c1 = 3.62

Field IC50 (system: HCT-116 colon carcinoma) for entry Cc1cc2c(F)c(Oc3ncnc(N)c3C=NOCC3CC3)ccc2[nH]1 = 0.333

---

# IC50 measurements, system: HER2 cytoplasmic domain (Homo sapiens)

Some compounds with known IC50 results, for comparison:
- SMILES: "CON=Cc1c(N)ncnc1Oc1ccc(NC(=O)Nc2ccncc2)c(Cl)c1"
  READING: "> 10 µM"
- SMILES: "CCNC(=O)Nc1ccc(Oc2ncnc(N)c2C=NOCCOC)cc1Cl"
  READING: "> 100 µM"
- SMILES: "CO/N=C/c1c(N)ncnc1Oc1ccc2[nH]ccc2c1"
  READING: "0.697 µM"
- SMILES: "CO/N=C/c1c(N)ncnc1Oc1ccc2[nH]c(C)cc2c1"
  READING: "> 1 µM"
- SMILES: "CON=Cc1c(N)ncnc1Oc1ccc(NC(=O)Nc2nccs2)c(Cl)c1"
  READING: "> 1 µM"

Recorded result, CON=Cc1c(N)ncnc1Oc1ccc(NC(=O)Nc2ccccc2)c(Cl)c1 , IC50: > 100 µM

Recorded result, CON=Cc1c(N)ncnc1Oc1ccc(NC(=O)Nc2ccc(F)cc2)c(Cl)c1 , IC50: > 100 µM

Recorded result, CON=Cc1c(N)ncnc1Oc1ccc(NC(=O)Nc2ccc(F)cc2)c(Br)c1 , IC50: > 1 µM

Recorded result, CON=Cc1c(N)ncnc1Oc1ccc(NC(=O)NCc2ccc(F)cc2F)c(Cl)c1 , IC50: > 100 µM

---

Below, each entry is listed with its recorded IC50.
- SYSTEM NAME: HER2 cytoplasmic domain (Homo sapiens, UniProt P04626)
- Sequence (P04626 676-1255 limits assumed): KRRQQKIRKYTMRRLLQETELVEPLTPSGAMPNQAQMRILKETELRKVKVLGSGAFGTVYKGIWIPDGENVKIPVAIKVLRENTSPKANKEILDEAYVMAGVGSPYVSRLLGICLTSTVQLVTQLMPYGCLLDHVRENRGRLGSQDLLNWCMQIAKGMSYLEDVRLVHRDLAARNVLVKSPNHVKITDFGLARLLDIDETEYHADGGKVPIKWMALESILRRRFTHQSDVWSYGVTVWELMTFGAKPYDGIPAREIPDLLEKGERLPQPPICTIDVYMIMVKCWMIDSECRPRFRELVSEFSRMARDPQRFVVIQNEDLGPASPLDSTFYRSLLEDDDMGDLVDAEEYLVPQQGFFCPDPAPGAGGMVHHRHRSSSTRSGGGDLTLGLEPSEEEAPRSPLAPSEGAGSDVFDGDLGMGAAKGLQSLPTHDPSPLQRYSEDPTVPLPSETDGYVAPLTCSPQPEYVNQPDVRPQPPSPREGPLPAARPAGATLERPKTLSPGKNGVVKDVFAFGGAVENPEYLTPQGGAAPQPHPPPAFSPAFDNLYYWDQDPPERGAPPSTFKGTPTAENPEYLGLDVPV

Some compounds with known IC50 results, for comparison:
- COMPOUND: "CO/N=C/c1c(N)ncnc1Oc1ccc2[nH]cc(CCNC(C)=O)c2c1 [Cpd 113]"
  IC50: "> 100 µM"
- COMPOUND: "CCOC(=O)c1c(C)[nH]c2ccc(Oc3ncnc(N)c3/C=N/OC)cc12 [Cpd 107]"
  IC50: "> 100 µM"
- COMPOUND: "CON=Cc1c(N)ncnc1Oc1ccc(CC(=O)Nc2ccccc2)cc1 [Cpd 97]"
  IC50: "1.31 µM"
- COMPOUND: "CCON=Cc1c(N)ncnc1Oc1ccc2[nH]c(C)cc2c1F [Cpd 1]"
  IC50: "> 100 µM"

Field IC50 (system: HER2 cytoplasmic domain (Homo sapiens, UniProt P04626)) for entry CON=Cc1c(N)ncnc1Oc1ccc(NC(=O)NC2CC2)c(Cl)c1 [Cpd 85] = > 100 µM

Field IC50 (system: HER2 cytoplasmic domain (Homo sapiens, UniProt P04626)) for entry CON=Cc1c(N)ncnc1Oc1ccc(NC(=O)Nc2cccc(C)c2)c(Cl)c1 [Cpd 76] = > 10 µM

Field IC50 (system: HER2 cytoplasmic domain (Homo sapiens, UniProt P04626)) for entry Cc1cc2c(F)c(Oc3ncnc(N)c3C=NOCCCN(C)C)ccc2[nH]1 [Cpd 17] = ~10 µM

Field IC50 (system: HER2 cytoplasmic domain (Homo sapiens, UniProt P04626)) for entry CON=Cc1c(N)ncnc1Oc1ccc(NC(=O)NCCCCN2CCCC2)c(Cl)c1 [Cpd 84] = > 10 µM

Field IC50 (system: HER2 cytoplasmic domain (Homo sapiens, UniProt P04626)) for entry CCCNC(=O)Nc1ccc(Oc2ncnc(N)c2C=NOC)cc1Cl [Cpd 52] = > 100 µM
